Test system: LOX IMVI
Assay: NCI tumour cell line growth inhibition, 48 h
Counter-ions that a name gives are not always drawn. The source made the active and inactive calls. No stated cut-off is given here; in the data, active = GI50 up to about 1.1 µM and inactive = higher.
# GI50 listing for each entry below

# molecule, measured.target, GI50
records = [
    ("COc1ccc2[nH]c3c4c(ccc3c2c1)C(=O)C=CC4=O", "LOX IMVI", "9.31 µM (inactive)"),
    ("NCCCCN [PUTRESCINE HYDROCHLORIDE]", "LOX IMVI", "> 100 µM (inactive)"),
    ("COC(=O)CP1(=O)OC2C(C3CCC2(C)C3(C)C)N1c1cc(C(F)(F)F)cc(C(F)(F)F)c1 (stereo not drawn)", "LOX IMVI", "22.4 µM (inactive)"),
]
